Molecular target: T1, Annexin A5 (Homo sapiens (Human), UniProt P08758 2-320, directly labeled with a fluorescent tag (Cy 5 per paragraph 324; Cy3 per paragraph 57))
T1 construct: also called ANXA5; ANX-A5
T1 sequence: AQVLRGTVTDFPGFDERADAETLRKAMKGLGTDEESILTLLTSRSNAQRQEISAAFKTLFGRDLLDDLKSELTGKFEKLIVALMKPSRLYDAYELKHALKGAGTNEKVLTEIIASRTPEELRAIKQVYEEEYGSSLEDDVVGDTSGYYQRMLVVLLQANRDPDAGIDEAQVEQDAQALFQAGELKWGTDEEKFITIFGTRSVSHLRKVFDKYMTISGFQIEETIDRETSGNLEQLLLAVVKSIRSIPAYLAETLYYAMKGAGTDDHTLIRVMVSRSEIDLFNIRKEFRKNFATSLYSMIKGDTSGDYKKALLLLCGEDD
Experiment: peptide density-array chip
pKd: −log10 of the molar value.
Reported pKd values for the following binders.

# Binder, pKd
measured = [
    ("SERYSARY (Array-synthesised 8-mer)", 7.08),
    ("AYLHGAAG (Array-synthesised 8-mer)", 7.03),
    ("SERYTARY (Array-synthesised 8-mer)", 7.06),
    ("SERYWARY (Array-synthesised 8-mer)", 7.04),
]
